Value source: patent EP0423133B1

test: Solubility by absorbance of saturated solutions at 262 nm; type: physicochemical; conditions: aqueous buffer; saturated solutions, pH 7 (50 mM phosphate buffer), room temperature; read-out: Solubility
property label: solubility
Form field: result (number plus unit)

Qu. Give solubility for the following compound: COc1ccc2cc(C(C)C(=O)OCCC[N+](C)(C)C)ccc2c1 (racemic)
Ans. 1610 mM

Qu. Give solubility for the following compound: CC(C)Cc1ccc(C(C)C(=O)OCCCCS(=O)(=O)O)cc1 (racemic)
Ans. 1130 mM

Qu. Give solubility for the following compound: CC(C)Cc1ccc(C(C)C(=O)OCCN(C)C)cc1 (stereo not shown)
Ans. 10 mM

Qu. Give solubility for the following compound: CCCCCCCCOC(=O)C(C)Cl (racemic)
Ans. 1.2 mM

Qu. Give solubility for the following compound: COCCOC(=O)C(C)c1ccc(CC(C)C)cc1 (stereo not shown)
Ans. 0.18 mM

Qu. Give solubility for the following compound: CC(C)Cc1ccc(C(C)C(=O)OCC(F)(F)F)cc1 (racemic)
Ans. 0.4 mM

Qu. Give solubility for the following compound: CC(C)Cc1ccc(C(C)C(=O)OCC[N+](C)(C)C)cc1 (racemic)
Ans. 2180 mM
